Consider the following molecules; for each one, report its melting point.
Where a name gives a salt, the structure may show the parent alone.

Lookup: Value lookup for melting point; key = Fc1ccc2c(c1)[nH]cc2[C@H]1CC[C@@H](N2CCN(c3cccc4c3OCCO4)CC2)CC1 (as salt: HCl) [Example 25a]
Found: 228 to 230 °C

Lookup: Further, for N#Cc1ccc2[nH]cc([C@H]3CC[C@@H](N4CCN(c5cccc6ccoc56)CC4)CC3)c2c1 (as salt: HCl) (hydrate or solvate) [Example 34a] ?
Found: 295 to 296 °C

Lookup: Likewise for CC(C)n1cc([C@H]2CC[C@@H](N3CCN(c4cccc5[nH]ccc45)CC3)CC2)c2cc(C#N)ccc21 (as salt: HCl) (hydrate or solvate) [Example 15a] ?
Found: 285 to 286 °C

Lookup: Also Fc1ccc2[nH]cc([C@H]3CC[C@@H](N4CCN(c5cccc6[nH]ccc56)CC4)CC3)c2c1 (as salt: HCl) [Example 3a] ?
Found: 215 to 217 °C

Lookup: For Brc1ccc2[nH]cc([C@H]3CC[C@H](N4CCN(c5cccc6[nH]ccc56)CC4)CC3)c2c1 (as salt: HCl) [Example 5b] then?
Found: > 300 °C

Lookup: Again, but for COc1cc2cccnc2c(N2CCN([C@H]3CC[C@@H](c4cn(C)c5ccc(C#N)cc54)CC3)CC2)n1 (as salt: salt) [Example 66a]
Found: 235 to 238 °C
